Test system: A549
Experiment: Euclidean distance of Cell Painting phenotypic profile (signed KS, 77 features) to DMSO centroid (dimensionless distance); 5 or 10 uM (library dependent); higher = stronger phenotypic change vs DMSO (phenoactivity)
Conditions: 48 h
Could you please report measured Euclidean distance for the items listed next?
Answers are plain numbers.

Example results:
{"COMPOUND": "O=C(c1ccc(OCCCc2c[nH]cn2)cc1)C1CC1 [Ciproxifan]", "Euclidean distance": 1.15}
{"COMPOUND": "COc1cc2c(cc1OC)CN(CCc1ccc(NC(=O)c3cc(OC)c(OC)cc3NC(=O)c3cnc4ccccc4c3)cc1)CC2 [Tariquidar]", "Euclidean distance": 1.26}
{"COMPOUND": "CCCCCCCCc1ccc(CCC(N)(CO)CO)cc1 [Fingolimod]", "Euclidean distance": 4}
{"COMPOUND": "Cc1c(C(=O)NN2CCCCC2)nn(-c2ccc(Cl)cc2Cl)c1-c1ccc(I)cc1", "Euclidean distance": 1.17}
{"COMPOUND": "C[C@@H](O)[C@H]1C(=O)N2C(C(=O)O)=C(S[C@@H]3CN[C@H](C(=O)N(C)C)C3)[C@H](C)[C@H]12 [Meropenem]", "Euclidean distance": 1.63}
{"COMPOUND": "CO[C@@]1(NC(=O)C(C(=O)O)c2ccc(O)cc2)C(=O)N2C(C(=O)O)=C(CSc3nnnn3C)CO[C@@H]21 (some centres not stated) [Latamoxef sodium]", "Euclidean distance": 0.777}
{"COMPOUND": "CSc1ccc(OCc2ncc([N+](=O)[O-])n2C)cc1 [Fexinidazole]", "Euclidean distance": 1.03}
{"COMPOUND": "CC(C)(CCCCCC(O)CCCCCC(C)(C)C(=O)O)C(=O)O", "Euclidean distance": 0.809}

Hi team, please reply with Euclidean distance for each item in this list.
1. CC[C@H]1OC(=O)[C@H](C)[C@@H](O[C@H]2C[C@@](C)(OC)[C@@H](O)[C@H](C)O2)[C@H](C)[C@@H](O[C@@H]2O[C@H](C)C[C@H](N(C)C)[C@H]2O)[C@](C)(O)C[C@@H](C)[C@@H]2N[C@@H](COCCOC)O[C@H]([C@H]2C)[C@]1(C)O [Dirithromycin]
2. O=C(O)C1CSCN1 (configuration not stated) [Timonacic]
3. CC(=O)Nc1nc2c(Oc3cc(-c4ccc(C(F)(F)F)cc4)ncn3)cccc2s1

Data returned:
1. 1.37
2. 0.753
3. 0.619

For the 2 compounds below, give their Euclidean distance values.
1. Cc1ccc(C(=O)c2ccc(CC(=O)O)n2C)cc1 [Tolmetin]
2. CC1=NN(c2ccccc2)C(=O)C1 [Edaravone]

Data returned:
[0.65, 1.04]
